Biological target: rat P2X7 (Rattus norvegicus (Rat))
Sequence (Q64663 whole entry): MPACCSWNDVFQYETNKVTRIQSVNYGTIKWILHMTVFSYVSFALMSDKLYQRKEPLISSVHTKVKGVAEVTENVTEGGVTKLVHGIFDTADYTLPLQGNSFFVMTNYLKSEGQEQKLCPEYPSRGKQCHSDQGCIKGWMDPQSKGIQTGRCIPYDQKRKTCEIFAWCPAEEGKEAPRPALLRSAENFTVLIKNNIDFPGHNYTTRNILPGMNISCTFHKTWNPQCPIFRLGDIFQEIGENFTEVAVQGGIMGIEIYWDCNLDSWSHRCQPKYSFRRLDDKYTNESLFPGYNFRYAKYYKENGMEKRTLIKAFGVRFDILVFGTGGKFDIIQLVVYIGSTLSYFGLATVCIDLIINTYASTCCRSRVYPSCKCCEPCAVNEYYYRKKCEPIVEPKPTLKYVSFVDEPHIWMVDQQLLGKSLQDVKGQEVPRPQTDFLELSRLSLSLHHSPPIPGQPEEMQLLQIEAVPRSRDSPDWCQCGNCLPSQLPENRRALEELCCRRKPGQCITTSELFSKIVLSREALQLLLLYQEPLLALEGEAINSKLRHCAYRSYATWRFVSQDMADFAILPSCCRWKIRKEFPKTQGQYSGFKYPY
Test: Ca2+ flux (FLIPR) in 1321N1 cells expressing recombinant rat P2X7
Assay type: cell-based
Conditions: 1321N1 cells, recombinant rat P2X7, 250 μM BzATP
pIC50: −log10 of the molar value.
QUANTITY NAME: pIC50

Reference set (4 entries):
# COMPOUND, pIC50
records = [
    ("Cc1ccnc(-n2nnc3c2CCN(C(=O)c2cccc(Cl)c2C)C3C)c1 (centres unmarked)", 5.64),
    ("CN(C)CC1c2ncn(-c3ccccn3)c2CCN1C(=O)c1cccc(C(F)(F)F)c1Cl (centres unmarked)", 6.48),
    ("Cc1c(C(=O)N2Cc3nnn(-c4ccn[nH]4)c3C[C@@H]2C)cccc1C(F)(F)F (single isomer, unassigned)", 6.49),
    ("O=C(c1ccc(Cl)cc1F)N1CCc2c(nnn2-c2ncccn2)C1", 5.87),
]

(1) Cc1c(C(=O)N2Cc3nnn(-c4ccn[nH]4)c3C[C@H]2C)cccc1C(F)(F)F (single isomer, unassigned)
(2) Cc1cc(-n2nnc3c2CCN(C(=O)c2ccnc(C(F)(F)F)c2Cl)[C@@H]3C)ncc1F (single isomer, unassigned)
In: Of the two listed items, which has the higher pIC50? First: 1 Second: 2 Which one? Tell me its label.
Out: 1
(1: 8.66, 2: 7.37)

(I) Cc1ccnc(-n2nnc3c2CCN(C(=O)c2ccnc(C(F)(F)F)c2F)[C@@H]3C)c1 (single isomer, unassigned)
(II) Cc1cccc(-n2nnc3c2CCN(C(=O)c2cccc(C(F)(F)F)c2F)C3C)n1 (centres unmarked)
In: Hey, which is lower on measured pIC50, I or II ? // respond with label for picked entry
Out: I
(I: 6.92, II: 7.24)

* * *

Target: UniProtKB Q99572
Test: P2X7 antagonism in human PBMCs (IL-1β release after LPS + Bz-ATP, ELISA)
Type: cell-based
Conditions: human PBMCs, test compound 10 μM
QUANTITY NAME: PBMC 10 μM (% control)

Please review the following examples before continuing.
# COMPOUND, MEAS VALUE
measured = [
    ("Cc1cccc(-n2nnc3c2CCN(C(=O)c2cccc(Cl)c2Cl)[C@@H]3C)n1 (single isomer, unassigned)", 88.9),
    ("C[C@H]1Cc2c(nnn2-c2ccn[nH]2)[C@H](C)N1C(=O)c1cccc(C(F)(F)F)c1Cl", "−6.8"),
    ("Cc1nccc(-n2nnc3c2CCN(C(=O)c2cccc(C(F)(F)F)c2Cl)C3C)n1 (centres unmarked)", 0.2),
]

(P) Cc1ccnc(-n2nnc3c2CCN(C(=O)c2cccc(OC(F)(F)F)c2F)C3C)c1 (centres unmarked)
(Q) Cc1ccnc(-n2nnc3c2CCN(C(=O)c2cccc(C(F)(F)F)c2Cl)C3C)c1 (centres unmarked)
In: Param metric = PBMC 10 μM (% control); output whichever of P , Q has the minimum value. Output the label that corresponds to your choice.
Out: Q
(Q: 1.5 % control, P: 17.2 % control)

(A) O=C(c1ccc(Cl)cc1F)N1CCc2c(nnn2-c2ccccn2)C1
(B) Cc1ccnc(-n2nnc3c2CCN(C(=O)c2cccc(C(F)(F)F)c2Cl)[C@@H]3C)c1 (single isomer, unassigned)
In: Endpoint returns whichever of A and B has the numerically higher PBMC 10 μM (% control). Kindly give the label for the entry you pick.
Out: A

* * *

Recorded IC50, one value per entry.
Target: rat P2X7 (Rattus norvegicus (Rat))
Assay: Ca2+ flux (FLIPR) in 1321N1 cells expressing recombinant rat P2X7
Assay type: cell-based
Conditions: 1321N1 cells, recombinant rat P2X7, 250 μM BzATP

# MOLECULE, TESTED ON, QUANTITY NAME, MEAS VALUE
rows = [
    ("Cc1cc(-n2nnc3c2CCN(C(=O)c2cc(Cl)cc(C(F)(F)F)c2)[C@@H]3C)ncc1F (single isomer, unassigned)", "rat P2X7 (Rattus norvegicus (Rat))", "IC50", "> 10 µM"),
    ("Cc1cc(-n2nnc3c2CCN(C(=O)c2cc(C(F)(F)F)ccc2Cl)C3C)ncc1F (stereo not drawn)", "rat P2X7 (Rattus norvegicus (Rat))", "IC50", "> 10 µM"),
    ("Cc1nccc(-n2nnc3c2CCN(C(=O)c2ccnc(C(F)(F)F)c2Cl)C3C)n1 (stereo not drawn)", "rat P2X7 (Rattus norvegicus (Rat))", "IC50", "> 10 µM"),
]

As a next step, examine the molecule that follows.
Per the record, Cc1cc(-n2nnc3c2CCN(C(=O)c2cccc(C(F)(F)F)c2F)C3C)ncn1 (stereo not drawn) has IC50 of > 10 µM

* * *

Target: human P2X7 (Homo sapiens (Human), UniProt Q99572)
Sequence (Q99572 whole entry): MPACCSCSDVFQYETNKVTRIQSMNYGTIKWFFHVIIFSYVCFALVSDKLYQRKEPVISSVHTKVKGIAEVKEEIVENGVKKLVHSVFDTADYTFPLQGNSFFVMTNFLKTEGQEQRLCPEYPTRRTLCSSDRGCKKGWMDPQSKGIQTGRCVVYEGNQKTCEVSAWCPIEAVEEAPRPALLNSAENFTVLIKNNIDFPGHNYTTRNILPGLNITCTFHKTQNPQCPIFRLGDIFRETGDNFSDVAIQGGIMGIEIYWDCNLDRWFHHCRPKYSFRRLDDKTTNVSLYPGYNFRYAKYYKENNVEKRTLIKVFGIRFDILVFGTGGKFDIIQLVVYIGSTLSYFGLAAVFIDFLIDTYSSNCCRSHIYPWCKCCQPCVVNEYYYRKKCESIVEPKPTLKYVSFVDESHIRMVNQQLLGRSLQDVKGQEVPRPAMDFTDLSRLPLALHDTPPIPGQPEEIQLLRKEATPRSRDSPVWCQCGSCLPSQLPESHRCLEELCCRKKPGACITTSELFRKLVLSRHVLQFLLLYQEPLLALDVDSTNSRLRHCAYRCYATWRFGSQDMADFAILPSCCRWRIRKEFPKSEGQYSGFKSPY
Test: P2X7 antagonism in human PBMCs (IL-1β release after LPS + Bz-ATP, ELISA)
Format: cell-based
Conditions: human PBMCs, test compound 10 μM
QUANTITY NAME: PBMC 10 μM (% control)

Field: example entries. Status: answers known.
# COMPOUND, TESTED ON, READING UNIT, PBMC 10 μM (% control)
records = [
    ("Cc1c(C(=O)N2CCc3c(nnn3-c3ncccn3)C2C)cccc1C(F)(F)F (stereo not shown) [Example 282]", "human P2X7 (Homo sapiens (Human), UniProt Q99572)", "% control", "−5.5"),
    ("Cc1cc(C)nc(-n2nnc3c2CCN(C(=O)c2cccc(C(F)(F)F)c2Cl)C3C)n1 (stereo not shown) [Example 253]", "human P2X7 (Homo sapiens (Human), UniProt Q99572)", "% control", "−2.6"),
]

(P) CC1Cc2c(nnn2-c2ncc(F)cn2)CN1C(=O)c1cccc(C(F)(F)F)c1Cl (stereo not shown) [Example 200]
(Q) CC1Cc2c(nnn2-c2ccccn2)CN1C(=O)c1ccc(F)c(Cl)c1Cl (stereo not shown) [Example 121]
In: // which entry has the larger PBMC 10 μM (% control) value, P or Q ? Reply with the label of the item you choose.
Out: P
(P: 3.2 % control, Q: −0.2 % control)

* * *

Target: rat P2X7 (Rattus norvegicus (Rat))
Assay: Ca2+ flux (FLIPR) in 1321N1 cells expressing recombinant rat P2X7;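 note: Calcium-4 dye fluorescence change read 180 s after agonist addition, with cells preincubated 30 min with compound and dye in 96-well plates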
Assay type: cell-based
Settings: 1321N1 cells, recombinant rat P2X7, 250 μM BzATP
QUANTITY NAME: IC50 (µM)

# COMPOUND, IC50 [µM]
measured = [
    ("Cc1ccnc(-n2nnc3c2CCN(C(=O)c2cccc(Cl)c2Cl)[C@H]3C)n1 (single isomer, unassigned) [Example 392]", 0.0473),
    ("O=C(c1cccc(C(F)(F)F)c1Cl)N1CCc2c(ncn2-c2ccccn2)C1CF (centres unmarked) [Example 32]", 0.0475),
    ("Cc1nc(-n2nnc3c2CCN(C(=O)c2cccc(C(F)(F)F)c2Cl)C3C)ncc1F (single isomer, unassigned) [Example 306]", 5.98),
]
